Target: von Willebrand factor (VWF) (Homo sapiens, UniProt P04275 P04275:764-2813)
Test: filter; Bmax 87%; 2 mM CaCl2, 37 C
Details: tags: factor VIII free, Haematologic Technologies Inc; label: 5'-32P
Assign Kd to each entry below.
Enter your answer as a number in nM; do not include the unit.

q: Input ACGAACUGCCCUCGAUCGACGCACAGACGU (ssRNA, rAfCrGmAmAmCfUrGfCfCfCmUmCmGmAmUmCmGmAfCrGfCrAmCmAmGmAfCrGfU-idT) [T59 vrt2] , output reported Kd.
a: 5.5

q: Consider the binder ACGAACUGCCCUCUUUUUUGACGCACAGACGU (ssRNA, 2'-F C and U; 2'-OH A and G; 3' idT) [T94] . State its measured Kd.
a: 5
